This collection of values is drawn from paper PMC7203957.

assay: HepG2 cytotoxicity; type: cell-based; settings: human, HepG2 (ATCC HB-8065) cells
property label: cytotoxicity at 48 h, 50 µM
Quick note: number first, unit second.

compound CNc1cccc2cc(C(=O)Nc3ccc(C(=O)O)cc3)c(=O)[nH]c12 [Compound 13e] , cytotoxicity at 48 h, 50 µM observed: 8.4%
